# Test system: MCF7
# method: NCI tumour cell line growth inhibition, 48 h
Activity calls are given as the source filed them. Rule as the data show it: active = GI50 up to about 1.1 µM and inactive = higher.
Possible outcomes: TRUE for active, FALSE for inactive

compound	className
COc1cc(OC)c2nc(C)c3c(c2c1)NCC3	FALSE
COc1ccc(-c2c(C(=O)Nc3ccccc3)c(-c3ccccc3)n(C3OC(CO)C(O)C(O)C3O)c(=S)c2C#N)cc1 (centres undefined)	FALSE
O=C1C[C@H](c2ccccc2)O[C@@H](c2ccccc2)C1	FALSE
C=C1c2nc3ccccc3n2C=C(c2ccccc2)N1c1ccc([N+](=O)[O-])cc1	FALSE
C=C1C(=O)O[C@@H]2[C@H]3O[C@]3(C)CCC=C(C)CC[C@@H]12	FALSE
COC1CC(OC2CCC3(C)C(=CCC4C3C(OC(C)=O)C(OC(=O)CC(C)C)C3(C)C(C(C)=O)CCC43O)C2)OC(C)C1OC1CC(OC)C(OC2CC(OC)C(OC3OC(C)C(O)C(OC)C3O)C(C)O2)C(C)O1 (centres undefined)	FALSE
COc1cc(C2CC(C)(N3CCOCC3)Oc3cc4c(cc32)OCO4)cc(OC)c1OC (centres undefined)	TRUE
NC1CCCCC1.O=P(O)(O)C(O)/C=C/c1ccccc1 (centres undefined)	FALSE
O=C(NC(CO)Cc1ccc(Oc2cc(CC(CO)NC(=O)OCc3ccccc3)ccc2OC(=O)OCc2ccccc2)cc1)OCc1ccccc1 (centres undefined)	FALSE
CCCCC(C(=O)NCCNC(=O)CCC(=O)N(C)O)C(=O)NCCNC(=O)CCC(=O)N(C)O	FALSE
O[C@H]1[C@H](O)[C@@H](Cn2nnc(-c3ccccc3)c2-c2ccccc2)OCO[C@@H]1Cn1nnc(-c2ccccc2)c1-c1ccccc1	FALSE
O=C(NCCN1CCCCC1)c1ccc(Br)cc1	FALSE
CO/C(=N\N=C\c1ccc(OC)c(OC)c1)c1ccncc1	FALSE
COc1cc(C(C)(C)C)c(OC(=O)/C=C/C(=O)O/C=C/[N+](=O)[O-])c(C(C)(C)C)c1	FALSE
O=C(CCCn1ccnc1[N+](=O)[O-])NCCn1cnc([N+](=O)[O-])c1	FALSE
CC[C@@]1(O)C(=O)OCc2c1cc1n(c2=O)Cc2cc3cc4c(cc3nc2-1)OCO4	TRUE
Cc1ccc(-n2cc(-c3ccc(Cl)cc3)c3c2N=CN2N=C(c4cccs4)NC32)cc1 (centres undefined)	FALSE
CCOP(=O)(OCC)C1=C(c2ccccc2)OC(N)=C(C#N)C1c1ccc(Cl)cc1 (centres undefined)	FALSE
OC1CC(O)c2c(Cl)sc(Cl)c21 (centres undefined)	FALSE
